- Tested on: RPMI-8226 leukemia
- EXPERIMENTAL_PROTOCOL: NCI tumour cell line growth inhibition, 48 h
Can you tell me TGI for the items I'm about to list?

Study these solved cases before continuing.
{"columns": ["COMPOUND", "TESTED_SYSTEM", "VALUE_MEASURED"],
 "data": [
  ["c1ccc([P+](Cc2csnn2)(c2ccccc2)c2ccccc2)cc1", "RPMI-8226 leukemia", "> 100 µM"],
  ["CCN(CC(=O)O)CC(=O)O", "RPMI-8226 leukemia", "> 100 µM"],
  ["Cc1cccc(NC(Nc2cccc(C)c2)=C(C(Cl)=C(Cl)Cl)[N+](=O)[O-])c1", "RPMI-8226 leukemia", "> 100 µM"],
  ["CCOC(=O)C(C)NC(=O)N(C)C12CC3CC(CC(C3)C1)C2 (stereo unspecified)", "RPMI-8226 leukemia", "422 µM"],
  ["CNC(=O)c1cc(Oc2ccc(NC(=O)Nc3ccc(Cl)c(OC(F)(F)F)c3)c(F)c2)ccn1", "RPMI-8226 leukemia", "7.85 µM"]
]}

Could you share which TGI value was measured for "CC(=O)c1c(C)n([O-])c2cc(C)c(C)cc2[n+]1=O" ? > 100 µM

---

- Tested on: SF-268 CNS
- EXPERIMENTAL_PROTOCOL: NCI tumour cell line growth inhibition, 48 h; in the data active = GI50 below about 0.43 µM; inactive = the rest
# valid calls are active, inactive; nothing else

{"columns": ["MOLECULE", "CAT"],
 "data": [
  ["O=C1c2ccccc2-c2c1c1ccccc1c(=O)n2CCNCCCNCCn1c2c(c3ccccc3c1=O)C(=O)c1ccccc1-2", "active"],
  ["CCCSc1cc(Cl)nc(N)n1", "inactive"],
  ["CCn1c(-c2nonc2N)nc2ccc(F)cc21", "inactive"],
  ["COc1ccc(C2C(C#N)=C(N)OC3=C2CCCc2ccc(F)cc23)cc1OC (stereo unspecified)", "inactive"],
  ["CCN(CCO)CCNc1ccc(C)c2sc3cc(Cl)ccc3c(=O)c12", "inactive"],
  ["COC(=O)c1c(O)ccc2[nH]c(C)c(C#N)c12", "inactive"],
  ["Cc1noc(C)c1-c1ccc2[nH]c(=O)n3c2c1OC[C@@H]3c1ccccn1", "inactive"],
  ["CNC(=O)c1ccc(-c2cnc3ncc(Cc4ccc5ncccc5c4)n3n2)cc1F", "inactive"]
]}

Recorded call for "CN1CCN(Cc2ccc(NC(=O)c3ccc(C(C)(C)C)c(C#Cc4cnc5cccnn45)c3)cc2C(F)(F)F)CC1" ? inactive

Recorded call for "NC(N)=N/N=C/c1c(-c2ccccn2)nc2sc(Cl)cn12" ? inactive

Recorded call for "COc1ccc(-c2cc(-c3cc(Cl)ccc3Cl)nc3nc(=S)[nH]c(N)c23)cc1" ? inactive

---

- Test system: SNB-75 CNS
- EXPERIMENTAL_PROTOCOL: NCI tumour cell line growth inhibition, 48 h
Can you tell me TGI for the items I'm about to list?

{"columns": ["COMPOUND", "TGI"],
 "data": [
  ["COc1cc(/C=C\\c2ccc(O)cc2)cc(OC)c1OC", "> 30 µM"],
  ["Cc1cn(C2CC(OC(c3ccccc3)(c3ccccc3)c3ccccc3)C(COC(c3ccccc3)(c3ccccc3)c3ccccc3)O2)c(=O)[nH]c1=O (stereo not given)", "> 100 µM"],
  ["Oc1c(Br)cc(CN(Cc2cc(Br)c(O)c(Br)c2)C2CCCCC2)cc1Br", "> 100 µM"],
  ["COc1ccc(NC2=C(Br)C(=O)C(C)=C(C)C2=O)cc1", "23.5 µM"],
  ["C=CC(=O)Nc1cccc(Nc2nc(Nc3ccc(OCCOC)cc3)ncc2F)c1", "2.44 µM"]
]}

// each listed compound needs a value for TGI
1. COc1cc2c(cc1O)CC[n+]1cc3c(OC)c(OC)ccc3cc1-2
2. CC(O)CN1C(=O)NC(Cc2ccccc2)C1=O (stereo not given)
3. CC(C)(C)OC(=O)c1ccc(NCc2cc(O)ccc2O)cc1
4. COc1ccc(N2C(=O)C3c4[nH]c5ccccc5c4C4C(C)CCCC4C3C2=O)cc1 (stereo not given)

> 100 µM
> 100 µM
18.4 µM
> 77 µM

Form field: TGI recorded for "CC(=O)c1c(C)n([O-])c2cc(C)c(C)cc2[n+]1=O" with SNB-75 CNS (enter value) > 100 µM
